Cited source: patent US20230293526A1

# Test system: BEN
# TEST NAME: Cell proliferation CellTiterGlo Ex.2
# Type: cell-based
# PROTOCOL CONDITIONS: BEN (Lung), 72 h
pIC50: −log10 of the molar value.
MEASURED PROPERTY: pIC50

                                   molecule  measured_property  measurement
0  C#C[C@]1(CO)O[C@@H](n2cnc3c(=O)[nH]c(N)nc32)C[C@@H]1O [compound 13]              pIC50       < 5.00

----------
# System: cancer cell lines
# TEST NAME: Cancer cell proliferation activity of representative nucleosides, CellTiterGlo 72 h (Example 7, Tables 8 and 9)
# Format: cell-based
# PROTOCOL CONDITIONS: Homo sapiens, SF-295, 72 h, SF295, brain, 72 h
The reader will find reported IC50 values listed item by item below.
MEASURED PROPERTY: IC50 (µM)

>>> df
                                   compound  modifier_sign  measurement
0  C#C[C@]1(CO)O[C@@H](n2cc(F)c(N)nc2=O)C[C@@H]1O [compound 9]              =         4.49
1  C#C[C@]1(CO)O[C@@H](n2cc(F)c(=O)[nH]c2=O)C[C@@H]1O [compound 15]              >           50
2  C#C[C@]1(CO)O[C@@H](n2cnc3c(=O)[nH]c(N)nc32)C[C@@H]1O [compound 13]              =         7.16
3  N#C[C@]1(CO)O[C@@H](n2ccc(N)nc2=O)C[C@@H]1O [compound 29]              =         1.13
4  CC[C@]1(CO)O[C@@H](n2ccc(N)nc2=O)C[C@@H]1O [compound 21]              >           50
5  CC[C@]1(CO)O[C@@H](n2cnc3c(N)nc(N)nc32)C[C@@H]1O [compound 25]              >           50
6  C[C@]1(CO)O[C@@H](n2ccc(N)nc2=O)C[C@@H]1O [compound 30]              =         0.73

----------
# Test system: cancer cell lines
# TEST NAME: Cancer cell proliferation activity of representative nucleosides, CellTiterGlo 72 h (Example 7, Tables 8 and 9)
# Format: cell-based
# PROTOCOL CONDITIONS: Homo sapiens, IMR-90, 72 h, IMR90, lung, 72 h
Listed here are molecules together with their documented IC50.
MEASURED PROPERTY: IC50

>>> df
                               entry_smiles  measured_property  measurement
0  C#C[C@]1(CO)O[C@@H](n2cc(F)c(=O)[nH]c2=O)C[C@@H]1O               IC50      > 50 µM
1  C#C[C@]1(CO)O[C@@H](n2cc(F)c(N)nc2=O)C[C@@H]1O               IC50      > 50 µM
2  C#C[C@]1(CO)O[C@@H](n2cnc3c(=O)[nH]c(N)nc32)C[C@@H]1O               IC50      > 50 µM
3  CC[C@]1(CO)O[C@@H](n2ccc(N)nc2=O)C[C@@H]1O               IC50      > 50 µM
4  N#C[C@]1(CO)O[C@@H](n2ccc(N)nc2=O)C[C@@H]1O               IC50      2.73 µM
5  C[C@]1(CO)O[C@@H](n2ccc(N)nc2=O)C[C@@H]1O               IC50      2.12 µM
6  CC[C@]1(CO)O[C@@H](n2cnc3c(N)nc(N)nc32)C[C@@H]1O               IC50      3.47 µM
7  C#C[C@]1(CO)O[C@@H](n2ccc(N)nc2=O)C[C@@H]1O               IC50      > 50 µM
